Assay: APR_HepG2_p53Act_24hr: Apredica 24-hour HepG2 Assay for p53 Activation (AID 2282913);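 further: p53 protein immunofluorescence averaged per cell in HepG2 with Hoechst nuclei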
Conditions: high-content imaging, actives raise or lower the signal
Protocol: APR_HepG2_24hr is a cell-based, multiplexed-readout assay that uses HepG2, a human liver cell line, with measurements taken at 24 hours after chemical dosing in a 384-well plate.APR_HepG2_p53Act_24hr is one of 10 assay component(s) measured or calculated from the APR_HepG2_24hr assay. […] This assay endpoint, APR_HepG2_p53Act_24hr, was analyzed with bidirectional fitting relative to DMSO as the negative control and baseline of activity. […]
Active and inactive are the calls of the source. How the source made its calls: active means hit-call score of the fitted dose curve at least 0.9, where 1 is the maximum; inactive means score below 0.9.
Readout Label: AC50

| Molecule | AC50 |
| --- | --- |
| COC(=O)NS(=O)(=O)c1ccc(N)cc1 | inactive |
| O=C(Nc1ccccc1-c1ccc(Cl)cc1)c1cccnc1Cl | inactive |
| COCC(=O)N(c1c(C)cccc1C)C(C)C(=O)OC (stereo not given) | inactive |
| CCN(CC)C(=O)C(C)Oc1cccc2ccccc12 (stereo not given) | inactive |
| CN=C=S | inactive |

Fill in AC50 for each of the 8 molecules listed.
1. CS(=O)(=O)c1cc(C(F)(F)F)ccc1C(=O)c1cnoc1C1CC1
2. Clc1cccc(C(Cl)(Cl)Cl)n1
3. Nc1c(Cl)c(F)nc(OCC(=O)O)c1Cl
4. CN/C(=N\[N+](=O)[O-])NCc1cnc(Cl)s1
5. Cc1c(COC(=O)[C@@H]2[C@H](/C=C(\Cl)C(F)(F)F)C2(C)C)cccc1-c1ccccc1
6. CC(C)N1C(=O)N(c2ccccc2)CSC1=NC(C)(C)C
7. CCCCC(O)(Cn1cncn1)c1ccc(Cl)cc1Cl (stereo not given)
8. COc1cc(Cl)c(OC)cc1Cl

inactive
inactive
inactive
inactive
inactive
inactive
105 µM (active)
inactive

Fill in AC50 for each of the 2 molecules listed.
1. CCN(CC)c1nc(C)cc(OP(=S)(OC)OC)n1
2. Cc1ccc(N=CN(C)C=Nc2ccc(C)cc2C)c(C)c1

["inactive", "inactive"]

---

read-out: ABC Transporter (ABCC3), ABCC3 (gene 8714); assay: LTEA_HepaRG_ABCC3: Life Technologies and Expression Analysis (LTEA) Assay for ABC Transporter (ABCC3) using HepaRG (AID 2283462); settings: mRNA level, 48 h; actives raise or lower the signal
The source made the active and inactive calls. How the source made its calls: active means hit-call score of the fitted dose curve at least 0.9, where 1 is the maximum; inactive means score below 0.9.
Choose the fitting class; nothing outside T for active, F for inactive is accepted.

| Compound | Cat |
| --- | --- |
| COCC(C)N(C(=O)CCl)c1c(C)csc1C (configuration not stated) | F |

Assay result, entry Clc1nc(Cl)nc(Nc2ccccc2Cl)n1 — outcome?
F

Assay result, entry CCOc1nc(F)cc2nc(S(=O)(=O)Nc3c(Cl)cccc3Cl)nn12 — outcome?
F

Assay result, entry CCCCC(C#N)(Cn1cncn1)c1ccc(Cl)cc1 (configuration not stated) — outcome?
F

Assay result, entry O=C(Nc1ccccc1-c1ccc(Cl)cc1)c1cccnc1Cl — outcome?
F

Assay result, entry Cc1cc(C)nc(Nc2ccccc2)n1 — outcome?
F

Assay result, entry CCCCC(O)(Cn1cncn1)c1ccc(Cl)cc1Cl (configuration not stated) — outcome?
T

Assay result, entry O=C1C2CC=CCC2C(=O)N1SC(Cl)(Cl)Cl (configuration not stated) — outcome?
F

Assay result, entry Cc1c(COC(=O)[C@@H]2[C@H](/C=C(\Cl)C(F)(F)F)C2(C)C)cccc1-c1ccccc1 — outcome?
F

Assay result, entry CC(C)C1(C)N=C(c2ncccc2C(=O)O)NC1=O (configuration not stated) — outcome?
F

Assay result, entry COP(=S)(OC)Oc1ccc([N+](=O)[O-])c(C)c1 — outcome?
F

Assay result, entry Cc1ccc(N=CN(C)C=Nc2ccc(C)cc2C)c(C)c1 — outcome?
F
